Test system: Caco-2
Assay: cell viability relative to DMSO; higher = less toxic
Details: 72 h; 100 nM
observation.type: cell viability (%)
The reply should be a number in %, with the unit left off.

Sample records with cell viability:
{"compound": "CNC(=O)Oc1ccccc1OC(C)C [propoxur]", "measurement.target": "Caco-2", "unit.text": "%", "cell viability": 104}
{"compound": "CCOCOC[C@H](C[C@H](C)C(=O)NO)NC(=O)c1ccc(Oc2ccccc2)cc1 [ONO-4817]", "measurement.target": "Caco-2", "unit.text": "%", "cell viability": 100}
{"compound": "CCN1CCCC(OC(=O)C(c2ccccc2)c2ccccc2)C1 (stereo not given) [piperidolate]", "measurement.target": "Caco-2", "unit.text": "%", "cell viability": 70.2}
{"compound": "O[C@@H]1CO[C@H]2[C@@H]1OC[C@@H]2O [isosorbide]", "measurement.target": "Caco-2", "unit.text": "%", "cell viability": 91.4}
{"compound": "CCN(CC)C(=O)/C(C#N)=C/c1cc(O)c(O)c([N+](=O)[O-])c1 [entacapone]", "measurement.target": "Caco-2", "unit.text": "%", "cell viability": 95.5}

Annotate the compound Cc1cccc(Oc2nc3c(C)cccn3c(=O)c2/C=C(\C#N)c2nc3ccccc3s2)c1 with its measured cell viability.
98.3

Annotate the compound CCN(CC)CCOC(=O)c1ccc(N)cc1 [procaine] with its measured cell viability.
96.6
